assay: chemical genetic growth profiling, strain panel (AID 1159580);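 note: tested at 20 µM; growth read once vehicle control cultures reached saturation at 30 °C; 1 = growth at the plate median or of vehicle wells; lower values mean less growth of the strain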; settings: S. cerevisiae deletion strains, growth OD, locus YCL016C, strain dcc1, active compounds read low
The whole screen tested about 5,500 compounds, of which about 2,000 (36%) were called active. About 18% were inconclusive and are not listed. Some of the results follow.
Lab note: compare normalized growth with 1, writing 1.0 if less and 0.0 if equal or more.

[
  {
    "COMPOUND": "CC(NCCc1ccc(O)cc1)C(O)c1ccc(O)cc1 (stereo not drawn)",
    "CLASS": 1.0
  },
  {
    "COMPOUND": "CCOC(=O)c1c(C)cc(O)c(C=O)c1O",
    "CLASS": 1.0
  },
  {
    "COMPOUND": "CN(C)c1ccc(C(=C2C=CC(=[N+](C)C)C=C2)c2ccc(N(C)C)cc2)cc1",
    "CLASS": 1.0
  },
  {
    "COMPOUND": "CCCCCCCCNC(C)C(O)c1ccc(SC(C)C)cc1 (stereo not drawn)",
    "CLASS": 1.0
  },
  {
    "COMPOUND": "CN(C)CC/C=C1\\c2ccccc2Sc2ccc(Cl)cc21",
    "CLASS": 1.0
  },
  {
    "COMPOUND": "CC(=O)OCC(=O)[C@H]1CCC2C3CCC4=CC(=O)CC[C@]4(C)C3CC[C@@]21C (stereo partly drawn)",
    "CLASS": 1.0
  },
  {
    "COMPOUND": "CCC(=O)O[C@H]1[C@H](O[C@@H]2[C@@H](C)[C@H](O[C@H]3C[C@@](C)(OC)[C@@H](O)[C@H](C)O3)[C@@H](C)C(=O)O[C@H](CC)[C@@](C)(O)[C@H](O)[C@@H](C)C(=O)[C@H](C)C[C@@]2(C)O)O[C@H](C)C[C@@H]1N(C)C",
    "CLASS": 1.0
  },
  {
    "COMPOUND": "CC(C(=O)O)c1cccc(C(=O)c2ccccc2)c1 (stereo not drawn)",
    "CLASS": 1.0
  },
  {
    "COMPOUND": "NC(=O)C(c1ccccc1)(c1ccccc1)C1CCN(CCc2ccc3c(c2)CCO3)C1 (stereo not drawn)",
    "CLASS": 0.0
  },
  {
    "COMPOUND": "COc1ccc2c(c1)O[C@@H]1COc3cc(OC)c(OC)cc3[C@@H]1C2=O",
    "CLASS": 1.0
  },
  {
    "COMPOUND": "COc1cc2c(cc1OC)Cc1cc(OC)c(OC)cc1Cc1cc(OC)c(OC)cc1C2",
    "CLASS": 0.0
  }
]
